Measured values drawn from patent US8691761B2 for this set.

// reported IC50 for each item listed
measurement_target: hSSTR2 (Homo sapiens, UniProt P30874)
Construct: expressed in transfected cells; host or cells: CHO-K1 or CCL39 cells
Sequence (P30874 whole entry): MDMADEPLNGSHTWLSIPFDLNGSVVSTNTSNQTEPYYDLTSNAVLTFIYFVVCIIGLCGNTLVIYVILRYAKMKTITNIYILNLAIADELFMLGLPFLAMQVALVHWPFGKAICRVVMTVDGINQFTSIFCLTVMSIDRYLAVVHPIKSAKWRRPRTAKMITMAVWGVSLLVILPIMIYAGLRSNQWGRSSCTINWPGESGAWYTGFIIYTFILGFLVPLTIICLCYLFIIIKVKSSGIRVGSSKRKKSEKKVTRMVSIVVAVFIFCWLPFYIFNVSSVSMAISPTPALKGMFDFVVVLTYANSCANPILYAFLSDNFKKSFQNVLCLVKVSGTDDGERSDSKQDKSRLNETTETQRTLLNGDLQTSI
assay_procedure: Receptor autoradiography, displacement of 125I-[Leu8,D-Trp22,Tyr25]-SRIF-28 from membrane pellet sections
Type: binding
test_context: Table 3; mean ± SEM when N ≧ 3; read-out: sst2 binding affinity (IC50)
Bridge positions count the residues as written; N and C are the ends. Square brackets hold non-standard residues; d marks the D form. Peptide text beside a SMILES is read from it. * marks the point of attachment. DOTA = O=C(O)CN1CCN(CC(=O)O)CCN(CC(=O)*)CCN(CC(=O)O)CC1; Phe(4-NO2) = N[C@@H](Cc1ccc([N+](=O)[O-])cc1)C(=O)O; dPhe(4-NHCONH2) = NC(=O)Nc1ccc(C[C@@H](N)C(=O)O)cc1; 2Nal = N[C@@H](Cc1ccc2ccccc2c1)C(=O)O
recorded_metric: IC50 (nM)

compound	recorded_metric	observed_result
C[C@@H](O)[C@@H]1NC(=O)[C@H](CCCCN)NC(=O)[C@@H](Cc2ccc(NC(N)=O)cc2)NC(=O)[C@H](Cc2ccc(O)cc2)NC(=O)[C@H](NC(=O)[C@H](Cc2ccc([N+](=O)[O-])cc2)NC(=O)CN2CCN(CC(=O)O)CCN(CC(=O)O)CCN(CC(=O)O)CC2)CSSC[C@@H](C(=O)N[C@@H](Cc2ccc3ccccc3c2)C(N)=O)NC1=O [Peptide No. 5] ({DOTA}-[Phe(4-NO2)][dC]Y[dPhe(4-NHCONH2)]KTC[2Nal]-NH2; disulfide 2-7)	IC50	1.3
C[C@@H](O)[C@@H]1NC(=O)[C@H](CCCCN)NC(=O)[C@@H](Cc2c[nH]c3ccccc23)NC(=O)[C@H](Cc2ccc(NC(N)=O)cc2)NC(=O)[C@H](NC(=O)[C@H](Cc2ccc(Cl)cc2)NC(=O)CN2CCN(CC(=O)O)CCN(CC(=O)O)CCN(CC(=O)O)CC2)CSSC[C@@H](C(=O)N[C@@H](Cc2ccc3ccccc3c2)C(N)=O)NC1=O [Peptide No. 14]	IC50	9.8
C[C@@H](O)[C@@H]1NC(=O)[C@H](CCCCN)NC(=O)[C@@H](Cc2c[nH]c3ccccc23)NC(=O)[C@H](Cc2ccc(NC(=O)NO)cc2)NC(=O)[C@H](NC(=O)[C@@H](N)Cc2ccc(Cl)cc2)CSSC[C@@H](C(=O)N[C@@H](Cc2ccc3ccccc3c2)C(N)=O)NC1=O	IC50	9.3
